Values were extracted from PubChem BioAssay AID449762.

Experiment: M. tuberculosis growth inhibition, HTS (AID 449762);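 further: bacterial growth assessed after seven days of incubation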
Details: M. tuberculosis H37Rv growth inhibition, 7H9 media; at 25 µM; active compounds read high
About 1,900 (0.58%) of roughly 330,000 compounds were called active. Not shown: some 4% with an inconclusive outcome. These entries were drawn from the full list. Potency and affinity values are given separately.
ASSAY_READOUT: inhibition (%)
A number alone suffices; assume %.

Sample records with inhibition:
MOLECULE	ASSAY_READOUT	UNITS_SYMBOL	QUANTITATIVE_READOUT
Cc1ccc(-c2nc3ccccc3s2)cc1NC(=S)NC(=O)/C=C/c1ccco1	inhibition	%	-2.81
S=c1[nH]nc(-c2ccncc2)n1/N=C/c1cn(-c2ccccc2)nc1-c1ccccc1	inhibition	%	1.85
CCCCn1c(N)c(N(CC(C)C)C(=O)C2CCN(c3ncnc4sc(C)c(C)c34)CC2)c(=O)[nH]c1=O	inhibition	%	54.4
CCN(CC)S(=O)(=O)c1ccc(N2CCCC2)c(NC(=O)c2nn(C)c(=O)c3ccccc23)c1	inhibition	%	-4.45
NC(=S)NNC(=O)Nc1ccc(Cl)c(Cl)c1	inhibition	%	-11.5
O=C1c2ccccc2S(=O)(=O)c2cc(C(=O)N3CCN(c4ccc(Cl)cn4)CC3)ccc21	inhibition	%	14
CCCCCNC(=O)c1ccc2c(c1)ncn2-c1ccc(OC)cc1	inhibition	%	13.7
CC(=O)O/C(=C\c1cn(C(C)=O)c2ccccc12)C(=O)O	inhibition	%	-13.8
C=CCNC(=O)CSc1nnc(-c2cccs2)o1	inhibition	%	2.45
NC(=S)NNc1ccnc2cc(Cl)ccc12	inhibition	%	41.1

Look up inhibition: Cc1nc(C)c(CCNC(=O)c2ccccc2Br)s1
-5.7

Cool, now CCCNc1nc(Nc2ccc(C)c(Cl)c2)c2cnn(C)c2n1
14.2

Try this molecule too: CCN(CC)S(=O)(=O)c1ccc2oc(SCC(=O)NC3CC3)nc2c1
-7.6

Same thing, different molecule: COc1ccc(CCN=C(N)C(C)c2ccccc2)cc1OC (stereo not given)
-10.7

Same question for COc1ccccc1NS(=O)(=O)c1cccc(C(=O)NN)c1 please.
-5.02

Consider next the molecule Cc1cc(C)nc(N2CCCC(C(=O)NC(C)C)C2)n1 (stereo not given) in the same way.
0.18

Next up: CC(=O)N1CCN(c2nc(C)nc3sc4c(c23)CCC(C)C4)CC1 (stereo not given)
-0.41

Also need CCCCc1nnc(NC(=O)c2ccc(N3CCCC3=O)cc2)s1 , thanks.
0.88

Try this molecule too: COc1ccc(Cl)cc1NC(=O)CSc1nc(Nc2ccccc2)nc(N2CCOCC2)n1
-3.97

Also check Cc1ccccc1-c1nc2c3ccccc3nc(=S)n2[nH]1
14.3

Same for CCN(CC)S(=O)(=O)c1ccc(N2CCN(CCO)CC2)nc1
-5.66

And what about the molecule Cc1[nH]c2ccccc2c1C(=O)COC(=O)c1ccccc1O ?
-1.43

Now try CC(C)NC(=O)[C@@H]1CSC2c3ccccc3C(=O)N21 (stereo not given in full) .
-1.97

How about CC(=O)n1cc(C=C2C(=O)NC(=O)NC2=O)c2ccccc21 ?
6.36

Same again, this time with O=[N+]([O-])c1cc(-c2ccc(/C=N/n3cnnc3)o2)ccc1Cl
16.1

Next molecule: O=C(Nc1cc(F)ccc1F)C1CCCO1 (stereo not given)
-6.27

Moving on to O=C(NC1CCCC1)C(c1ccc(F)cc1)N(Cc1ccc(F)cc1)C(=O)CCl (stereo not given)
0.54

Would you mind doing CC(C)(C)C1CCc2c(sc3nc(SCC(=O)O)nc(N)c23)C1 (stereo not given) as well?
6.02

Okay, and CCc1cccc(NC(=O)CCS(=O)(=O)c2cccc3nonc23)c1 ?
57.8

Same lookup for CCCSc1nnc2n(C)c(=O)c3c4c(sc3n12)CCC4 , please.
9.4

Same question, COc1ccc(Nc2ncc3c(n2)CC(c2ccc(C)cc2)CC3=O)cc1 (stereo not given) this time
11

Consider next the molecule O=C(NCC1(c2ccccc2)CCCC1)c1ccccc1 in the same way.
3.79

Can you handle O=C(C1CCCCC1)N1CCc2ccccc21 next?
0.1

Also O=C(c1ccccc1)N1CCN2C(=O)c3ccccc3C12c1ccc(Cl)cc1 (stereo not given) ?
4.61

Continue with COc1ccc(-c2nn(-c3ccccc3F)cc2CNCCn2nc(C)cc2C)cc1
63.9

And Cc1ccc(C(=O)N2CCN3C(=O)c4ccccc4C23c2ccc(Cl)cc2)cc1 (stereo not given) ?
13.6

Param item: CCn1c(SCC(=O)Nc2cc(C(C)(C)C)nn2-c2ccccc2)nnc1-c1cccs1
-2.18

Input O=C(O)/C=C/C(=O)Nc1nccs1
-2.62

Also check O=C(OCc1nnc(-c2ccc(Cl)cc2)o1)C12CC3CC(CC(O)(C3)C1)C2
7.22

Proceed to Cc1ccc(NC(=O)CCS(=O)(=O)c2cccc3nonc23)cc1
13.6

###

Listed molecules paired with reported inhibition
Assay: M. tuberculosis growth inhibition, HTS (AID 449762);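 further: bacterial growth assessed after seven days of incubation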
Conditions: M. tuberculosis H37Rv growth inhibition, 7H9 media; at 25 µM; active compounds read high
The whole screen tested about 330,000 compounds, of which about 1,900 (0.58%) were called active. Roughly 4% stayed inconclusive and do not appear here. These entries were drawn from the full list. Potency and affinity values are given separately.
State just the number; it will be interpreted in %.

What inhibition value was documented for this molecule, CCOC(=O)c1c(/N=C/N(C)C)sc(/C=N/Nc2ccccc2)c1-c1ccccc1 ?
4.1

###

Assay: M. tuberculosis growth inhibition, HTS (AID 449762);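 further: bacterial growth assessed after seven days of incubation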
Conditions: M. tuberculosis H37Rv growth inhibition, 7H9 media; at 25 µM; active compounds read high
Out of some 330,000 compounds screened, about 1,900 (0.58%) were called active. About 4% were inconclusive and are not listed. Not all results are given here. Measured potencies and affinities stand elsewhere.
ASSAY_READOUT: inhibition (%)
Note: unit % is implicit; provide only the numeric part.

Worked set:
1) Oc1ccc(/C=N/Nc2ccc(Cl)nn2)c(O)c1O -6.06
2) COc1ccc(-c2cc3ccccc3oc2=O)cc1NC(=O)c1cccnc1 4.8
3) O=C(Nc1ccccc1)C1=C[C@@H](C2CC2)C[C@@H](OCc2ccc(CO)cc2)O1 5.14

Fill in the blank: the reported inhibition of NC(=O)c1ccsc1NC(=O)c1cc(=O)c2ccccc2o1 is ____.
1.83

Next up: c1ccc(N(c2ccccc2)c2nc(-n3ccnc3)nc(-n3ccnc3)n2)cc1
-9.38

Cool, now COc1ccc(-c2cc3ccccc3oc2=O)cc1NC(=O)c1ccc(Br)o1
-2.95

###

Assay: M. tuberculosis growth inhibition, HTS (AID 449762);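 further: bacterial growth assessed after seven days of incubation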
Details: M. tuberculosis H37Rv growth inhibition, 7H9 media; at 25 µM; active compounds read high
Hit rate of the full screen: of about 330,000 compounds, about 1,900 (0.58%) were called active. Another 4% or so got no clear call; they are omitted. A selection follows. Potency and affinity values are given separately.
ASSAY_READOUT: inhibition (%)
Write the number in % without appending the unit.

MOLECULE	inhibition [%]
CN(Cc1ccccc1)CC(O)COc1ccc(CNCc2nccn2C)cc1 (stereo unspecified)	-8.78

Shifting focus to the molecule that follows.
So what's the measured inhibition for this one? CC(=O)Nc1ccc(NC2=CC(=O)c3ccccc3C2=O)cc1
3.89

###

Assay: M. tuberculosis growth inhibition, HTS (AID 449762);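 further: bacterial growth assessed after seven days of incubation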
Settings: M. tuberculosis H37Rv growth inhibition, 7H9 media; at 25 µM; active compounds read high
The campaign covered roughly 330,000 compounds. About 1,900 (0.58%) were called active. Inconclusive results (about 4%) are left out. These entries were drawn from the full list. Potency and affinity values are given separately.
ASSAY_READOUT: inhibition (%)
Hi! Could you send only the number? It should be in %, unit omitted.

Here is how some molecules turned out for inhibition.
MOLECULE	UNITS_SYMBOL	inhibition
CCCNS(=O)(=O)c1ccc(OCC(=O)NCCC2=CCCCC2)cc1	%	-5.92
CCOC(=O)N1CCN(C(=O)CCS(=O)(=O)c2ccc3c(c2)CC(C)N3C(=O)CC)CC1 (stereo not drawn)	%	7.71
Nc1ccc2oc(-c3ccccc3Cl)cc(=O)c2c1O	%	-3.11
O=C(N/N=C/C=C/c1ccccc1[N+](=O)[O-])c1cccs1	%	-11.8

Please give the measured inhibition for this molecule: C/C(=N/NC(=O)c1ccc(Br)o1)C(C)C
3.04

And then Cc1cc(C)n2c(Br)c(CSc3nc4ccccc4s3)nc2n1 , what is it?
-0.87

Input CC(C)(C)c1csc(NC(=O)c2ccncc2)n1
6.43

###

List of inhibition values.
Experiment: M. tuberculosis growth inhibition, HTS (AID 449762);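 further: bacterial growth assessed after seven days of incubation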
Settings: M. tuberculosis H37Rv growth inhibition, 7H9 media; at 25 µM; active compounds read high
Out of some 330,000 compounds screened, about 1,900 (0.58%) were called active. About 4% were inconclusive and are not listed. Only a sample is shown. Potency and affinity values are given separately.
# value in %; strip the unit string

Worked set:
COMPOUND	QUANTITATIVE_READOUT
COc1ccc(-c2ccc(C#N)c(SCC(=O)NCCc3ccccc3)n2)cc1OC	8.95
COc1ccc(NC(=O)Cn2c(=O)n(-c3ccc(OC)cc3OC)c(=O)c3c(C)c(C)sc32)cc1	-0.67
O=C(COc1ccc(-n2ccnc2)cc1)Nc1cccc(Cl)c1	-3.44

Please look up its inhibition: CCCCNC(=O)C1=C(N)C(C(=O)Nc2ccc(C)c(S(=O)(=O)N3CCCCC3)c2)SC1=Nc1ccc(C)cc1C (stereo not given)
-11.1

Next compound up: CCCn1c(SCC(=O)N2CCCc3ccccc32)nnc1-c1ccco1
-5.68
